Tested on: K. pneumoniae strain 249
Assay details: Overnight microdilution susceptibility test (MicroScan panels, NCCLS criteria)
Assay type: cell-based
Run parameters: Klebsiella pneumoniae, K. pneumoniae 249, combinations as drug/clavulanate, read-out: Minimum Inhibitory Concentrations (MICs)
Readout: MIC

## Task What does the record list as MIC for CO/N=C(\C(=O)N[C@@H]1C(=O)N2C(C(=O)O)=C(CSc3nc(=O)c(=O)[nH]n3C)CS[C@H]12)c1csc(N)n1 [Ceftriaxone] ?
## Result 16 µg/mL

## Task Follow-up item: COCC1=C(C(=O)O)N2C(=O)[C@@H](NC(=O)/C(=N\OC)c3csc(N)n3)[C@H]2SC1 [cefpodoxime]
## Result > 4 µg/mL

## Task Try the compound CO[C@@]1(NC(=O)Cc2cccs2)C(=O)N2C(C(=O)O)=C(COC(N)=O)CS[C@@H]21 [cefoxitin]
## Result > 32 µg/mL
